AChE (electric eel type-VI-S) (Electrophorus electricus, UniProt O42275) data, read-out pIC50
Sequence (O42275 24-633): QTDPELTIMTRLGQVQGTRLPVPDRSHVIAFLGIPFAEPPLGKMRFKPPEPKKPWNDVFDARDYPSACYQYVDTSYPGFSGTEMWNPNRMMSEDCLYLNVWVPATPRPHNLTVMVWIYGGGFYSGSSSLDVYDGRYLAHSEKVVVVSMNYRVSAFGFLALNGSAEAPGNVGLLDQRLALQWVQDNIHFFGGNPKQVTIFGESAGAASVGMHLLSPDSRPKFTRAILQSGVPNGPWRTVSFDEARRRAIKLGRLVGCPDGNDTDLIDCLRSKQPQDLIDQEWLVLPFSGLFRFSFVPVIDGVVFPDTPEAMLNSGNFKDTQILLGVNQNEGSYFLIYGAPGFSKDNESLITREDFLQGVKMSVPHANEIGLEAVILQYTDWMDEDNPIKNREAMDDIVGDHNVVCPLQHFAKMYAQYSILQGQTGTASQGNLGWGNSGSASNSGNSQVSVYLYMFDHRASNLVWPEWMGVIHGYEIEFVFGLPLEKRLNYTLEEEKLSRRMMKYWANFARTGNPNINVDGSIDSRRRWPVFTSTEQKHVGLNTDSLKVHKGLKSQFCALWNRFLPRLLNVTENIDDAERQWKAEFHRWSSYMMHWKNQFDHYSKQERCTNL
Give bare numbers, as −log10 of the molar value.

>  <input-smiles>
O=c1cc(-c2ccc(Cl)cc2)oc2ccccc12

>  <pIC50>
3.19

$$$$
>  <input-smiles>
O=c1cc(-c2ccc(Cl)c(Cl)c2)oc2ccccc12

>  <pIC50>
3.41

$$$$
>  <input-smiles>
O=c1cc(-c2cc(Cl)ccc2Cl)oc2ccccc12

>  <pIC50>
3.47

$$$$
>  <input-smiles>
O=c1cc(-c2cccc(Cl)c2Cl)oc2ccccc12

>  <pIC50>
3.36

$$$$

Pending compound:
Exercise: State its pIC50 for this compound: O=c1cc(-c2ccc(Cl)cc2Cl)oc2ccccc12
Solution: 3.35

---

test system: brains of scopolamine-induced amnesic mice; test: Antioxidant enzyme activities and oxidative stress markers in brain homogenate; format: in vivo, Balb/C mice; settings: 15 mg/kg b.w., n = 8
metric-name: GSH

>  <compound>
O=c1cc(-c2ccc(Cl)c(Cl)c2)oc2ccccc12 [Compound F4]

>  <GSH>
38.30 ± 1.40 μg/mg of Protein

$$$$

Please state, for each entry, its recorded GSH.
1. O=c1cc(-c2cc(Cl)ccc2Cl)oc2ccccc12 [Compound F5]
2. O=c1cc(-c2cccc(Cl)c2Cl)oc2ccccc12 [Compound F3]
3. O=c1cc(-c2ccc(Cl)cc2Cl)oc2ccccc12 [Compound F2]
4. O=c1cc(-c2ccc(Cl)cc2)oc2ccccc12 [Compound F1]

Solution:
39.01 ± 1.39 μg/mg of Protein
36.98 ± 1.66 μg/mg of Protein
35.91 ± 1.39 μg/mg of Protein
35.70 ± 1.47 μg/mg of Protein
